Reported pEC50 by item:
- Target desc: Human TREM2 (Homo sapiens, UniProt Q9NZC2)
- Construct: expressed in transfected cells
- Sequence (Q9NZC2 19-230): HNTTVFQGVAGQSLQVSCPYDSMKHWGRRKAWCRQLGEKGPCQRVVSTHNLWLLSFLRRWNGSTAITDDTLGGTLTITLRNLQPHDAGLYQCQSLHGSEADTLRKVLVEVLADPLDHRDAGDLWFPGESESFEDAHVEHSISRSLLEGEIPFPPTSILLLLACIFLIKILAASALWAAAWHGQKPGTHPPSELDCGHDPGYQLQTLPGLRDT
- Sequence (O43914 22-113 partner): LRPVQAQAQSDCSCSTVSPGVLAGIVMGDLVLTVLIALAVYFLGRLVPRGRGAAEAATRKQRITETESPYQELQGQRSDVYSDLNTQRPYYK
- Assay info: Human TREM2 activity: cellular phosphorylation of Syk (AlphaLISA SureFire Ultra p-SYK) in HEK293/DAP12+TREM2 stable cell line
- Type: cell-based
- Measurement parameters: phospho-Syk AlphaLISA signal, HEK293/DAP12+TREM2 cells; concentration giving 50% of maximal response; read-out: EC50
pEC50: −log10 of the molar value.
Readout type: pEC50

[
  {
    "Molecule": "Cc1nc2c(-c3cc(F)c(F)cc3F)nc(N3CCO[C@@H](c4cnn(C)c4)C3)nc2c(=O)n1C (single isomer, unassigned) [Example 27B]",
    "Target desc": "Human TREM2 (Homo sapiens, UniProt Q9NZC2)",
    "Readout type": "pEC50",
    "Experimental value": "7.00 to 8.00"
  },
  {
    "Molecule": "Cc1cc([C@H]2CN(c3cc4c(=O)n(C)c(C)nc4c(-c4ccc(Cl)cc4F)n3)CC(C)(C)O2)ccn1 (single isomer, unassigned) [Example 172B]",
    "Target desc": "Human TREM2 (Homo sapiens, UniProt Q9NZC2)",
    "Readout type": "pEC50",
    "Experimental value": "8.00 to 9.00"
  },
  {
    "Molecule": "Cc1nc2c(-c3ccc(Cl)cc3F)nc(N3CCCc4ccncc4C3)nc2c(=O)n1C",
    "Target desc": "Human TREM2 (Homo sapiens, UniProt Q9NZC2)",
    "Readout type": "pEC50",
    "Experimental value": "< 6.00"
  },
  {
    "Molecule": "Cc1nc2c(-c3ccc(Cl)cc3F)nc(N3C[C@H](c4cnn(C)c4)OC4(CC4)C3)cc2c(=O)n1C (single isomer, unassigned) [Example 144B]",
    "Target desc": "Human TREM2 (Homo sapiens, UniProt Q9NZC2)",
    "Readout type": "pEC50",
    "Experimental value": "7.00 to 8.00"
  },
  {
    "Molecule": "Cc1cc([C@H]2CN(c3nc(-c4ccc(F)cc4F)c4nc(C)n(C)c(=O)c4n3)C[C@@H](C)O2)ccn1 (single isomer, unassigned) [Example 175B]",
    "Target desc": "Human TREM2 (Homo sapiens, UniProt Q9NZC2)",
    "Readout type": "pEC50",
    "Experimental value": "7.00 to 8.00"
  },
  {
    "Molecule": "Cc1nc2c(-c3ccc(C(F)(F)F)cc3F)nc([C@H]3CCO[C@@H](c4cnn(C)c4)C3)nc2c(=O)n1C (single isomer, unassigned)",
    "Target desc": "Human TREM2 (Homo sapiens, UniProt Q9NZC2)",
    "Readout type": "pEC50",
    "Experimental value": "< 6.00"
  },
  {
    "Molecule": "Cc1cc([C@H]2C[C@@H](c3cc4c(=O)n(C)c(C)nc4c(-c4ccc(C(F)(F)F)cc4F)n3)CCO2)ccn1 (single isomer, unassigned) [Example 168B]",
    "Target desc": "Human TREM2 (Homo sapiens, UniProt Q9NZC2)",
    "Readout type": "pEC50",
    "Experimental value": "8.00 to 9.00"
  },
  {
    "Molecule": "Cc1nc2c(-c3ccc(F)cc3F)nc(N3C[C@@H](c4cnn(C)c4)OC(F)(F)C3)nc2c(=O)n1C (single isomer, unassigned) [Example 156A]",
    "Target desc": "Human TREM2 (Homo sapiens, UniProt Q9NZC2)",
    "Readout type": "pEC50",
    "Experimental value": "8.00 to 9.00"
  },
  {
    "Molecule": "Cc1nc2c(-c3ccc(Cl)cc3F)nc(N3CCN(C)C(c4cnn(C)c4)C3)nc2c(=O)n1C (stereo not drawn)",
    "Target desc": "Human TREM2 (Homo sapiens, UniProt Q9NZC2)",
    "Readout type": "pEC50",
    "Experimental value": "6.00 to 7.00"
  },
  {
    "Molecule": "Cc1nc2c(-c3ccc(C(F)(F)F)cc3F)nc([C@@H]3CCO[C@H](c4cnn(C)c4)C3)nc2c(=O)n1C (single isomer, unassigned)",
    "Target desc": "Human TREM2 (Homo sapiens, UniProt Q9NZC2)",
    "Readout type": "pEC50",
    "Experimental value": "7.00 to 8.00"
  },
  {
    "Molecule": "CCN1CCN(c2nc(-c3ccc(Cl)cc3F)c3nc(C)n(C)c(=O)c3n2)CC1c1cnn(C)c1 (stereo not drawn)",
    "Target desc": "Human TREM2 (Homo sapiens, UniProt Q9NZC2)",
    "Readout type": "pEC50",
    "Experimental value": "6.00 to 7.00"
  },
  {
    "Molecule": "Cc1nc2c(-c3ccc(C(F)(F)F)cc3F)nc(N3CCO[C@H](c4cnn(C5CC5)c4)C3)cc2c(=O)n1C (single isomer, unassigned) [Example 132A]",
    "Target desc": "Human TREM2 (Homo sapiens, UniProt Q9NZC2)",
    "Readout type": "pEC50",
    "Experimental value": "8.00 to 9.00"
  },
  {
    "Molecule": "COc1ccc(Cn2c(C)nc3c(-c4ccc(Cl)cc4F)nc(N4CCOC(c5cnn(C)c5)C4)nc3c2=O)cc1 (stereo not drawn)",
    "Target desc": "Human TREM2 (Homo sapiens, UniProt Q9NZC2)",
    "Readout type": "pEC50",
    "Experimental value": "6.00 to 7.00"
  },
  {
    "Molecule": "Cc1cc([C@@H]2CN(c3nc(-c4ccc(F)cc4F)c4nc(C)n(C)c(=O)c4n3)C[C@H](C)O2)ccn1 (single isomer, unassigned) [Example 175A]",
    "Target desc": "Human TREM2 (Homo sapiens, UniProt Q9NZC2)",
    "Readout type": "pEC50",
    "Experimental value": "8.00 to 9.00"
  },
  {
    "Molecule": "Cc1cc([C@H]2CN(c3nc(-c4ccc(F)cc4F)c4nc(C)n(C)c(=O)c4n3)CC(F)(F)O2)ccn1 (single isomer, unassigned) [Example 169B]",
    "Target desc": "Human TREM2 (Homo sapiens, UniProt Q9NZC2)",
    "Readout type": "pEC50",
    "Experimental value": "7.00 to 8.00"
  }
]

###

- Target desc: Human TREM2 (Homo sapiens, UniProt Q9NZC2)
- Construct: expressed in transfected cells
- Assay info: Human TREM2 activity: cellular phosphorylation of Syk (AlphaLISA SureFire Ultra p-SYK) in HEK293/DAP12+TREM2 stable cell line
- Type: cell-based
- Measurement parameters: phospho-Syk AlphaLISA signal, HEK293/DAP12+TREM2 cells; concentration giving 50% of maximal response; read-out: EC50
- From the text: Human TREM2, in vitro Measurement of Triggering Receptor Expressed on Myeloid Cells 2 activity using cellular phosphorylation of Spleen Tyrosine Kinase (“Syk”) Assay […] TREM2 signaling through DAP12 was monitored in the HEK293/DAP12+TREM2 stable cell line by measuring the phosphorylation levels of the Syk kinase using the commercially available AlphaLISA SureFire Ultra p-SYK (Tyr525/526) Assay Kit (PerkinElmer #ALSU-PSYK), based on the Perkin Elmer AlphaScreen/AlphaLISA technology. […]
pEC50: −log10 of the molar value.

[
  {
    "Molecule": "COCCN1CCN(c2nc(-c3ccc(Cl)cc3F)c3nc(C)n(C)c(=O)c3n2)CC1c1cnn(C)c1 (stereo not shown)",
    "pEC50": "6.00 to 7.00"
  },
  {
    "Molecule": "Cc1nc2c(-c3ccc(C(F)(F)F)cc3F)cc([C@@H]3CCO[C@H](c4cnn(C5CC5)c4)C3)cc2c(=O)n1C (single isomer, unassigned) [Example 118A]",
    "pEC50": "7.00 to 8.00"
  },
  {
    "Molecule": "Cc1nc2c(-c3ccc(Cl)cc3F)nc(N3CCO[C@H](c4cnn(C)c4)C3)cc2c(=O)n1C (single isomer, unassigned) [Example 125B]",
    "pEC50": "7.00 to 8.00"
  },
  {
    "Molecule": "Cc1nc2c(-c3ccc(Cl)cc3F)nc(N3C[C@@H](c4cnn(C)c4)OC4(CC4)C3)c(F)c2c(=O)n1C (single isomer, unassigned) [Example 173A]",
    "pEC50": "7.00 to 8.00"
  }
]

###

Reported Emax by item:
- Target desc: Human TREM2 (Homo sapiens)
- Construct: expressed in transfected cells
- Assay info: Human TREM2 activity: cellular phosphorylation of Syk (AlphaLISA SureFire Ultra p-SYK) in HEK293/DAP12+TREM2 stable cell line
- Format: cell-based
- Measurement parameters: HEK293; maximal response relative to reference agonist example 1B (remaining examples); read-out: Emax
- Source text: Human TREM2, in vitro Measurement of Triggering Receptor Expressed on Myeloid Cells 2 activity using cellular phosphorylation of Spleen Tyrosine Kinase (“Syk”) Assay […] TREM2 signaling through DAP12 was monitored in the HEK293/DAP12+TREM2 stable cell line by measuring the phosphorylation levels of the Syk kinase using the commercially available AlphaLISA SureFire Ultra p-SYK (Tyr525/526) Assay Kit (PerkinElmer #ALSU-PSYK), based on the Perkin Elmer AlphaScreen/AlphaLISA technology. […]

[
  {
    "Compound": "Cc1nc2c(-c3ccc(C(F)(F)F)cc3F)cc([C@H]3CCO[C@@H](c4cnn(C5CC5)c4)C3)cc2c(=O)n1C (single isomer, unassigned) [Example 118B]",
    "Emax": "< 75%"
  },
  {
    "Compound": "Cc1nc2c(-c3ccc(Cl)cc3F)nc(N3CCc4cncnc4CC3)nc2c(=O)n1C [Example 83]",
    "Emax": "< 75%"
  },
  {
    "Compound": "Cc1nc2c(-c3ccc(F)cc3F)nc(N3C[C@@H](C)O[C@@H](c4cnn(C5CC5)c4)C3)cc2c(=O)n1C (single isomer, unassigned) [Example 190B]",
    "Emax": "< 75%"
  }
]
